B1: MCOLN1 (parent)
chain: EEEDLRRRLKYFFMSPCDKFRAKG

# Variants of: B1
# assay-method-text: protein stability index of a GFP-peptide fusion (GPS, HEK-293T) (PSI 1-6); higher = more stable;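 also: lentivirally expressed fusions sorted by FACS into six bins by GFP to DsRed ratio, PSI derived from sequencing read proportions per bin multiplied by bin number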
# particulars: c terminus: a fixed tail appended
Class boundaries, taken from values of protein stability index, are as follows: bin 1 (below 2), bin 2 (2 to below 3), bin 3 (3 or more)

> print(dat)
    mutation.list  label.value
 1            R7I        bin 2
 2           C17R        bin 1
 3            E3G        bin 2
 4           Y11T        bin 2
 5            E2A        bin 2
 6           D18E        bin 1
 7            E3M        bin 1
 8           D18T        bin 1
 9            R6E        bin 3
10           K19M        bin 2
11           F12A        bin 3
12           K10P        bin 2
13           Y11R        bin 2
14            E1W        bin 2
15            L5Y        bin 2
16           G24A        bin 2
17           G24K        bin 3
18            R6K        bin 1
19           F20A        bin 3
20           F13P        bin 3
21           K23E        bin 2
22           F13H        bin 3
23           G24W        bin 1
24           Y11K        bin 2
25           S15M        bin 1
26           Y11I        bin 1
27           F12V        bin 2
28           R21A        bin 2
29           R21S        bin 3
